Provide the recorded IC50 for the entries that follow.
STUDY TARGET: recombinant human VAP-1 (Homo sapiens, UniProt Q16853)
Construct: purchased R&D systems
Sequence (Q16853 whole entry): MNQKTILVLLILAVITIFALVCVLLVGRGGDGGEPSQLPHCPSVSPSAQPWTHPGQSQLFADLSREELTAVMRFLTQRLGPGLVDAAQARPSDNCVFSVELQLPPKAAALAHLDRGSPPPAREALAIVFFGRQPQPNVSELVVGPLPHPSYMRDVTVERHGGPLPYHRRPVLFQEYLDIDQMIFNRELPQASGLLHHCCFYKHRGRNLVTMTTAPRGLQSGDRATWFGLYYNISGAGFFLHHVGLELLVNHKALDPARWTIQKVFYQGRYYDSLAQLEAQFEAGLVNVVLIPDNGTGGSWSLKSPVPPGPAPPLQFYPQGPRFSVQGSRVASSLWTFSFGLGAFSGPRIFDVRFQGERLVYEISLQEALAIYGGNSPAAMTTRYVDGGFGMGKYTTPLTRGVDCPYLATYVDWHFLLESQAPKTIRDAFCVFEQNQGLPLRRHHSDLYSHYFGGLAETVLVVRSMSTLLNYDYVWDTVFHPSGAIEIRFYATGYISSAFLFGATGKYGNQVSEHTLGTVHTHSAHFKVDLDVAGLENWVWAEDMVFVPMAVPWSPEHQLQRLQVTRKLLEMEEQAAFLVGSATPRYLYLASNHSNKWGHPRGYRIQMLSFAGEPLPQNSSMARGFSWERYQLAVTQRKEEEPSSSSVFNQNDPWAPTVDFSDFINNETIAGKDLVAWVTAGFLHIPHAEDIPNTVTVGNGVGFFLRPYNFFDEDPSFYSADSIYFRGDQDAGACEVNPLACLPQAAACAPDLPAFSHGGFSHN
EXPERIMENT NOTES: Activity on recombinant human VAP-1, Amplex Red HRP-coupled hydrogen peroxide assay, benzylamine substrate
Type: biochemical
CONDITION: recombinant human VAP-1, benzylamine substrate, 30 min preincubation at 37° C.; read-out: Inhibitory Activity (IC50, nM) human VAP-1
Structures can show the parent of a compound that is named as a salt.
Return type: number; implicit unit nM.

Query: IC50 lookup needed for Cc1c(-c2ccc3nonc3c2)cccc1-n1cnn(C/C(=C/F)CN)c1=O [Example 113] , thanks.
Result: 2.3

Query: Which IC50 reading was recorded for the compound CN(C)c1ccc(-c2cccc(-n3cnn(C/C(=C/F)CN)c3=O)c2)cc1 [Example 51, hydrochloride] ?
Result: 2

Query: If you can, please state the reported IC50 value of CC(=O)Nc1ccc(-c2ccc(-c3cccc(-n4cnn(C/C(=C/F)CN)c4=O)c3)cc2)cc1 [Example 68, hydrochloride] .
Result: 0.82
